- TARGET SYSTEM: SARS-CoV-2 spike protein receptor binding domain (isolated RBD) (SARS-CoV-2, UniProt P0DTC2 319-541)
ATTRIBUTE MEASURED: koff (s⁻¹)
I only need the number, in s⁻¹, no unit after it.

Request: Requested field: koff. Item: IMPI-027 (antibody, V domains shown) VH: QVQLQESGPGLVKPSQTLSLTCTVSGGSISSYGYYWNWIRQHPGKGLEWIGYIYYSGSTYYNPSLKSRVTISVDTSKNQLSLRLNSVSAADTAVYYCARDFGGNSNYFDYWGQGTLVTVSS VL: AIQLTQSPSSLSASVGDRVTITCRTSQGISSALAWYQQKPGKAPKLLIYDASSLESGVPSRFSGSGSGTDFTLTISSLQPEDFATYYCQQFNSYPLTFGGGTKVEIK
Result: 26.3
